Reported parental ratio values are given for each entry in this list.
- TARGET_ENTITY: CD28 (human) (UniProt P10747)
- ASSAY_METHOD_TEXT: flow cytometry, Expi293F cells transfected with CD28
Give your answer as a number; write no unit.

Would you please look over these solved cases?
binder="CD80 V4M/L70Q/A91G/I118V/T120S/T130A/K169E ECD-Fc (Fc fusion) VIHMTKEVKEVATLSCGHNVSVEELAQTRIYWQKEKKMVLTMMSGDMNIWPEYKNRTIFDITNNLSIVIQALRPSDEGTYECVVLKYEKDGFKREHLAEVTLSVKADFPTPSISDFEVPSSNIRRIICSASGGFPEPHLSWLENGEELNAINTTVSQDPETELYAVSSELDFNMTTNHSFMCLIKYGHLRVNQTFNWNTTKQEHFPDN" measurement_label="parental ratio" recorded_value=0.94
binder="CD80 A91G/S103P ECD-Fc (Fc fusion) VIHVTKEVKEVATLSCGHNVSVEELAQTRIYWQKEKKMVLTMMSGDMNIWPEYKNRTIFDITNNLSIVILALRPSDEGTYECVVLKYEKDGFKREHLAEVTLPVKADFPTPSISDFEIPTSNIRRIICSTSGGFPEPHLSWLENGEELNAINTTVSQDPETELYAVSSKLDFNMTTNHSFMCLIKYGHLRVNQTFNWNTTKQEHFPDN" measurement_label="parental ratio" recorded_value=0.41

# context switch: different binder, same parental ratio
The reported parental ratio of the binder CD80 V22A/L70Q/S121P ECD-Fc (Fc fusion) VIHVTKEVKEVATLSCGHNVSAEELAQTRIYWQKEKKMVLTMMSGDMNIWPEYKNRTIFDITNNLSIVIQALRPSDEGTYECVVLKYEKDAFKREHLAEVTLSVKADFPTPSISDFEIPTPNIRRIICSTSGGFPEPHLSWLENGEELNAINTTVSQDPETELYAVSSKLDFNMTTNHSFMCLIKYGHLRVNQTFNWNTTKQEHFPDN was 0.06

Reference source for all entries: patent US20220177587A1
